So I've got a bunch of molecules here, and I need their Plant response rating, Ragweed values.
Tested on: ragweed
Assay: Test A pre-/postemergence herbicide test
Type: in vivo, Ambrosia elatior
Settings: 125 g ai/ha; visual rating, 0 to 100 scale, 0 no effect, 100 complete control; approximately 10 days; preemergence
Numbers only.

Here's what some known entries look like.
>>> reported_value("Cc1ccc(C2CNC(=O)C2C(=O)Nc2cccc(F)c2)cc1 (racemic) [Compound 153]")
0
>>> reported_value("O=C1NCC(c2cccc(C3CC3)c2)C1C(=O)Nc1ccc(F)c(F)c1F (racemic) [Compound 168]")
0
>>> reported_value("CON(C(=O)C1C(=O)NCC1c1ccc(F)c(F)c1)c1cc([N+](=O)[O-])ccc1F (centres unmarked) [Compound 175]")
0

Parameters: items (list). Returns: Plant response rating, Ragweed for each item.
1. O=C1NCC(c2ccc(-c3ccccc3C(F)(F)F)cc2)C1C(=O)Nc1cccc(F)c1F (centres unmarked) [Compound 236]
2. Cc1cc(NC(=O)C2C(=O)NCC2c2cccc(C(F)(F)F)c2)ccc1F (racemic) [Compound 185]
3. COc1ccc(C2CNC(=O)C2C(=O)Nc2ccccc2C(F)(F)F)cc1C(F)(F)F (centres unmarked) [Compound 240]
4. CCc1cccc(C2CNC(=O)C2C(=O)Nc2ccc(F)c(F)c2F)c1 (racemic) [Compound 171]
5. Cc1ccc(C2CNC(=O)C2C(=O)Nc2ccccc2Cl)cc1 (racemic) [Compound 152]

1: 0; 2: 0; 3: 0; 4: 0; 5: 50

====

Assignment: determine reported Plant response rating, Lambsquarters for the given compounds.
System: lambsquarters
Assay: Test C pre-/postemergence herbicide test
Format: in vivo, Chenopodium album
Settings: Postemergence, 62 g ai/ha; scale 0 (no effect) to 100 (complete control)
Answers are plain numbers.

>>> reported_value("O=C1NCC(c2cccc(Cl)c2)C1C(=O)Nc1cccc(F)c1F (racemic)")
60
>>> reported_value("O=C1NCC(c2cc(F)cc(F)c2)C1C(=O)Nc1ccc(F)cc1F (racemic)")
0

Please supply Plant response rating, Lambsquarters for each of the following items, keeping them in order.
1. O=C1NCC(c2cccc(C(F)(F)F)c2)C1C(=O)Nc1ccc(F)c(F)c1F (centres unmarked)
2. CN1CC(c2ccc(F)cc2)C(C(=O)Nc2cccc(F)c2F)C1=O (centres unmarked)

1. 60
2. 55

For this compound ( O=C1NCC(c2cccc(C(F)(F)F)c2)C1C(=O)Nc1cccc(Cl)c1F (centres unmarked) ), measured Plant response rating, Lambsquarters is 65

====

Test system: barnyardgrass
Assay: Test A pre-/postemergence herbicide test
Assay type: in vivo, Echinochloa crus-galli
Details: Postemergence, 125 g ai/ha; visual rating on 0 to 100 scale (0 no effect, 100 complete control), approx. 10 days
// label = label 1 if Plant response rating, Barnyardgrass is not less than 50, otherwise label 0

>>> category("CC1(c2ccccc2)CNC(=O)C1C(=O)Nc1ccccc1F (stereo not shown)")
"label 0"
>>> category("O=C1NCC(c2cccc(Oc3ccccc3)c2)C1C(=O)Nc1ccc(F)c(F)c1F (stereo not shown)")
"label 0"
>>> category("O=C1NCC(c2ccc(OC(F)F)cc2)C1C(=O)Nc1ccccc1F (stereo not shown)")
"label 1"
>>> category("O=C1NCC(c2cnn(CC(F)(F)F)c2)C1C(=O)Nc1cccc(F)c1F (stereo not shown)")
"label 0"
>>> category("CN1CC(c2ccc(F)c(F)c2)C(C(=O)Nc2ccccc2F)C1=O (stereo not shown)")
"label 1"
>>> category("O=C1NCC(c2cccc(C(F)(F)F)c2)C1C(=O)Nc1cccc(C(F)(F)F)c1 (stereo not shown)")
"label 0"
>>> category("O=C1NCC(c2cccc(Oc3ccccc3)c2)C1C(=O)Nc1ccccc1Cl (stereo not shown)")
"label 0"
>>> category("O=C1NCC(c2cccc(Oc3ccccc3)c2)C1C(=O)Nc1ccccc1F (stereo not shown)")
"label 1"

Query compound follows.
Given O=C1NCC(c2cccc(C(F)(F)F)c2)C1C(=O)Nc1cccc(Cl)c1F (stereo not shown) , state whether its Plant response rating, Barnyardgrass is at least 50.
label 1

Source of measurements: patent US10294202B2
